All values here come from ChEMBL document CHEMBL3739406.

Procedure summary: Selectivity index, ratio of CC50 for HEK293T cells to EC50 for Chikungunya virus infected in HEK293T cells
Format: toxicity, cell-based, HEK-293T
Applied conditions: human, read-out: Ratio CC50/EC50
The entries below are paired with their reported selectivity ratio.
Quantity: selectivity ratio

1) CCCCC(=O)C1CCN(C(=O)c2cc3sccc3n2Cc2ccc(OC)cc2)CC1 = 2.9
2) CCCNC(=O)C1CCN(C(=O)c2cc3sc(CO)cc3n2Cc2ccc(OC)cc2)CC1 = 3.6
3) CCCNC(=O)C1CCN(C(=O)c2cc3sc(CNCc4ccccc4)cc3n2Cc2ccc(OC)cc2)CC1 = 4.2
4) CCCNC(=O)C1CCN(C(=O)c2cc3sccc3n2Cc2ccc(OC)cc2)CC1 = 2.7
5) COc1ccc(Cn2c(C(=O)N3CCC(C(=O)NC4CC4)CC3)cc3sccc32)cc1 = 2.8

----------
Procedure summary: Cytotoxicity against HEK293T cells assessed as reduction in cell viability after 24 hrs by cell titer-glo luminescent cell viability assay
Type: cell-based, HEK-293T
Applied conditions: human
Quantity: CC50 at 24 h

1. CCCNC(=O)C1CCN(C(=O)c2cc3sc(C#N)cc3n2Cc2ccc(OC)cc2)CC1 = > 100 µM
2. COc1ccc(Cn2c(C(=O)N3CCN(Cc4ccccc4)CC3)cc3sc(CNC(C)c4ccccc4)cc32)cc1 (stereo not given) = > 100 µM
3. CCN(CC)C(=O)c1cc2sccc2n1Cc1ccc(OC)cc1 = > 100 µM
4. COc1ccc(Cn2c(C(=O)N3CCN(Cc4ccccc4)CC3)cc3sccc32)cc1 = > 100 µM
5. COc1ccc(Cn2c(C(=O)NC(C)c3ccccc3)cc3sccc32)cc1 (stereo not given) = > 100 µM
6. CCCNC(=O)C1CCN(C(=O)c2cc3sc(-c4ccccc4)cc3n2Cc2ccc(OC)cc2)CC1 = > 100 µM
7. CCCNC(=O)C1CCN(C(=O)c2cc3sc(C(=O)c4ccccc4)cc3n2Cc2ccc(OC)cc2)CC1 = > 100 µM
8. CCCNC(=O)C1CCN(C(=O)c2cc3sc(C(C)=O)cc3n2Cc2ccc(OC)cc2)CC1 = > 100 µM
9. COc1ccc(Cn2c(C(=O)N3CCN(Cc4ccccc4)CC3)c(CNC(C)c3ccccc3)c3sccc32)cc1 (stereo not given) = > 100 µM
10. COc1ccc(Cn2c(C(=O)N3CCC(C(=O)NCc4cccc(Br)c4)CC3)cc3sccc32)cc1 = > 100 µM
11. COc1ccc(Cn2c(C(=O)N3CCCCC3)cc3sccc32)cc1 = > 100 µM
12. COc1ccc(Cn2c(C(=O)N3CCC(C(=O)NCC4CC4)CC3)cc3sccc32)cc1 = 24.6 µM
13. CCCNC(=O)c1cc2sccc2n1Cc1ccc(OC)cc1 = > 100 µM
14. CCOC(=O)C1CCN(C(=O)c2cc3sccc3n2Cc2ccc(OC)cc2)CC1 = 39 µM
15. CCCNC(=O)C1CCN(C(=O)c2c(CO)c3sccc3n2Cc2ccc(OC)cc2)CC1 = > 100 µM
16. CCCNC(=O)C1CCN(C(=O)c2cc3sc(C)cc3n2Cc2ccc(OC)cc2)CC1 = 36.3 µM
17. CCOC(=O)c1cc2sccc2n1Cc1ccc(OC)cc1 = > 100 µM
18. COc1ccc(Cn2c(C(=O)N3CCN(Cc4ccccc4)CC3)cc3sc(C(C)=O)cc32)cc1 = > 100 µM
19. CCCNC(=O)C1CCN(C(=O)c2cc3sc(Br)cc3n2Cc2ccc(OC)cc2)CC1 = > 100 µM
20. COc1ccc(Cn2c(C(=O)N3CCN(Cc4ccccc4)CC3)c(COCc3ccccc3)c3sccc32)cc1 = > 100 µM
